Can you tell me 48 pIC50 for the items I'm about to list?
- System: T. cruzi Tulahuen trypomastigotes
- procedureDetails: T. cruzi trypomastigote assay (Cell Titer-Glo viability, ATP luminescence)
- Assay type: cell-based, Trypanosoma cruzi
- condition: trypomastigote assay, 48 h; figure 1A

Complete the entry with 48 pIC50 for c1ccc(CCNCc2cncc3nc(-c4cnccn4)n(C4CCCCC4)c23)cc1 [TCMDC-143346]
< 4.3

Complete the entry with 48 pIC50 for O=C1CSC(c2cccnc2)N1c1ccc(Cl)cc1Cl (centres unmarked) [TCMDC-143114]
< 4.3

Complete the entry with 48 pIC50 for COc1ccc2ncc(=O)n(CCN3CCOC(CNCc4ccc(C(F)(F)F)cc4F)C3)c2n1 (centres unmarked) [TCMDC-143384]
< 4.3

Complete the entry with 48 pIC50 for CN(C)c1ncc(-c2cncn2CCOc2ccc(Cl)cc2)cn1 [TCMDC-143415]
4.5

Complete the entry with 48 pIC50 for O=S(=O)(NCC(c1cccnc1)N1CCN(c2ccc(F)cc2)CC1)c1cccs1 (centres unmarked) [TCMDC-143542]
< 4.3

* * *

- Test system: T. cruzi intracellular amastigotes in H9c2 cells
- procedureDetails: Rate-of-Kill (RoK) high-content imaging assay, amastigotes per cell (AM/CELL) and curve descriptors
- Format: cell-based, Trypanosoma cruzi
- condition: at MCC50
Can you tell me t50%_MCC50 for the items I'm about to list?
Expressed in h, but write only the number.

Complete the entry with t50%_MCC50 for O=C1CSC(c2cccnc2)N1c1ccc(Cl)cc1Cl (centres unmarked) [TCMDC-143114]
72.0

Complete the entry with t50%_MCC50 for O=C(Cn1ccnc1[N+](=O)[O-])NCc1ccccc1 [Benznidazole, benznidazole, reference compound]
46.2

Complete the entry with t50%_MCC50 for FC(F)(F)c1cc(C2CCCN(Cc3c[nH]c4ccccc34)C2)nc2ncnn12.O=C(O)C(O)C(O)C(=O)O (centres unmarked) [TCMDC-143311]
48.0

Complete the entry with t50%_MCC50 for COc1cccc(CCNC(=O)C(c2cn[nH]c2)N2CCN(c3ccc(Cl)cc3)CC2)c1 (centres unmarked) [TCMDC-143434]
72.0

Complete the entry with t50%_MCC50 for Fc1ccc(OC2CC(NCc3cccc4cn[nH]c34)C2)cc1C(F)(F)F (centres unmarked) [TCMDC-143455]
72.0

Complete the entry with t50%_MCC50 for Cc1c(C#N)c([N+](=O)[O-])nn1Cc1cccc(Cl)c1Cl [TCMDC-143152]
48.0

Complete the entry with t50%_MCC50 for N#Cc1ccc(S(=O)(=O)N2CCC3(CCN(c4ccccc4)C3=O)CC2)cc1 [TCMDC-143371]
72.0

Complete the entry with t50%_MCC50 for COc1ccc(NS(=O)(=O)c2cccc(NC(=O)c3cc(F)cc(F)c3)c2)cc1 [TCMDC-143108]
48.0

* * *

- Tested on: T. cruzi intracellular amastigotes in H9c2 cells
- procedureDetails: Rate-of-Kill (RoK) high-content imaging assay, amastigotes per cell (AM/CELL) and curve descriptors
- Format: cell-based, Trypanosoma cruzi
- condition: maximum effect at 72 h, RoK assay
observable: ME_72h (%)

Complete the entry with ME_72h (%) for COc1ccc(S(=O)(=O)NC(C)C)cc1Nc1ncc(-c2cccc(F)c2)cn1
54.2%

Complete the entry with ME_72h (%) for CC(=O)Nc1nc(-c2cc(C)ccc2C)c(C)s1
56.3%

Complete the entry with ME_72h (%) for COc1cccc(CCNC(=O)C(c2cn[nH]c2)N2CCN(c3ccc(Cl)cc3)CC2)c1 (centres unmarked)
117.8%

Complete the entry with ME_72h (%) for CCCN1CCN(Cc2ccc(S(=O)(=O)Nc3cccc(C)c3)cc2)CC1.O=C(O)C(F)(F)F.O=C(O)C(F)(F)F
65.1%

Complete the entry with ME_72h (%) for O=C(O)/C=C\C(=O)O.O=C(c1ccc(OCCCc2cnc[nH]2)cc1)C1CC1
46.1%

Complete the entry with ME_72h (%) for O=C(Nc1ccc(Br)c(Cl)c1)Nc1ccc2c(c1)OCO2
-0.7%

Complete the entry with ME_72h (%) for CC(C)Nc1nccc(-c2c(-c3ccc(F)cc3)ncn2C2CCOCC2)n1
36.7%

Complete the entry with ME_72h (%) for O[C@H]1CC[C@H](Nc2nccc(-c3sc(C4CCOCC4)nc3-c3ccc(F)c(F)c3)n2)CC1
23.2%

* * *

- Test system: T. cruzi intracellular amastigotes in H9c2 cells
- procedureDetails: Rate-of-Kill (RoK) high-content imaging assay, amastigotes per cell (AM/CELL) and curve descriptors
- Type: cell-based, Trypanosoma cruzi
- condition: Time 48; sheet figure 4 A
observable: AM/CELL NORM
Lab note: jot down the number only; don't add units.

Complete the entry with AM/CELL NORM for CC(C)Oc1cccc(N2CCC(C(=O)N3CCCN(C(C)C)CC3)CC2)c1.Cl
59.253

Complete the entry with AM/CELL NORM for CS(=O)(=O)c1cccc(CNC(=O)c2cncc(N3CCN(c4ccc(F)cc4)CC3)c2)c1.O=C(O)C(F)(F)F.O=C(O)C(F)(F)F.O=C(O)C(F)(F)F
18.8519

Complete the entry with AM/CELL NORM for CCCN(Cc1ccc(OC)c(OC)c1)Cc1cc(=O)c2c(C)cc(C)cc2[nH]1
75.3164

Complete the entry with AM/CELL NORM for O=c1[nH]ccc2ccc(-c3ccncc3)cc12
-202.655

Complete the entry with AM/CELL NORM for N#Cc1cc(N2CCCC2=O)ccc1Sc1ccccc1CO
29.3818

Complete the entry with AM/CELL NORM for Cc1nnnn1-c1cccc(C(=O)N2CCC[C@@]3(C)c4ncncc4CCC23)c1 (some centres unmarked)
-35.529

Complete the entry with AM/CELL NORM for COc1cccc(C(=O)[C@H]2C[C@@H]2CN(Cc2cccnc2)Cc2cccnc2)c1
-91.7284

Complete the entry with AM/CELL NORM for O=C(O)C(F)(F)F.O=c1oc2ccccc2n1C1CCN(Cc2ccccc2-c2cccnc2)CC1
-40.6003

* * *

- Tested on: T. cruzi intracellular amastigotes in H9c2 cells
- procedureDetails: Rate-of-Kill (RoK) high-content imaging assay, amastigotes per cell (AM/CELL) and curve descriptors
- Assay type: cell-based, Trypanosoma cruzi
- condition: Time 4; sheet figure 4 A
observable: AM/CELL NORM
Lab note: jot down the number only; don't add units.

For T. cruzi intracellular amastigotes in H9c2 cells, give AM/CELL NORM of the listed compound: CCCCNc1nccc(-c2c(-c3ccc(F)cc3)nn3c(N4CCOCC4)cccc23)n1
-16.0226

For T. cruzi intracellular amastigotes in H9c2 cells, give AM/CELL NORM of the listed compound: N#Cc1cc(N2CCCC2=O)ccc1Sc1ccccc1CO
9.146

For T. cruzi intracellular amastigotes in H9c2 cells, give AM/CELL NORM of the listed compound: COc1ccc(S(=O)(=O)NC(C)C)cc1Nc1ncc(-c2cccc(F)c2)cn1
-6.932

For T. cruzi intracellular amastigotes in H9c2 cells, give AM/CELL NORM of the listed compound: OCCCNc1nc(Nc2ccncc2)nc2ccccc12
-9.731

For T. cruzi intracellular amastigotes in H9c2 cells, give AM/CELL NORM of the listed compound: O=C(O)C(F)(F)F.O=c1oc2ccccc2n1C1CCN(Cc2ccccc2-c2cccnc2)CC1
-7.014

For T. cruzi intracellular amastigotes in H9c2 cells, give AM/CELL NORM of the listed compound: COc1ccccc1-c1c(C)[nH]c2nc(N)nc(C)c12
4.093

For T. cruzi intracellular amastigotes in H9c2 cells, give AM/CELL NORM of the listed compound: Clc1ccc(Sc2cnccc2N2CCOCC2)cc1
3.934

For T. cruzi intracellular amastigotes in H9c2 cells, give AM/CELL NORM of the listed compound: CCN(Cc1ccncc1)Cc1ccc(NC(=O)c2cc(-c3ccc(F)cc3)n[nH]2)cc1
7.09

For T. cruzi intracellular amastigotes in H9c2 cells, give AM/CELL NORM of the listed compound: N#Cc1ccc(S(=O)(=O)N2CCC3(CCN(c4ccccc4)C3=O)CC2)cc1
10.0376

* * *

- Tested on: H9c2 (rat cardiomyocytes)
- procedureDetails: RoK assay, number of host cells nuclei (drug-related cytotoxicity, H9c2 output, Cmin_Tox)
- condition: H9c2 host cells
observable: Cmin_Tox

Complete the entry with Cmin_Tox for Cc1c(C(=O)NCCCCn2ccnc2)oc2c(C)cccc12
>50 µM

Complete the entry with Cmin_Tox for CS(=O)(=O)c1cccc(-c2cnc(N)c3c(-c4ccc(CO)cc4)csc23)c1.O=C(O)C(F)(F)F
>50 µM

Complete the entry with Cmin_Tox for c1ccc(CCNCc2cncc3nc(-c4cnccn4)n(C4CCCCC4)c23)cc1
>50 µM

Complete the entry with Cmin_Tox for CC(C)Nc1nccc(-c2c(-c3ccc(F)cc3)ncn2C2CCOCC2)n1
>50 µM

* * *

Can you tell me AM/CELL NORM for the items I'm about to list?
- System: T. cruzi intracellular amastigotes in H9c2 cells
- procedureDetails: Rate-of-Kill (RoK) high-content imaging assay, amastigotes per cell (AM/CELL) and curve descriptors
- Type: cell-based, Trypanosoma cruzi
- condition: Time 4; sheet figure 4 A
Lab note: jot down the number only; don't add units.

Complete the entry with AM/CELL NORM for CCN(C)Cc1ccc(N2CCC(NS(=O)(=O)c3ccc4c(c3)CCO4)CC2)nc1
16.0918

Complete the entry with AM/CELL NORM for CN1CCCN(C(=O)c2ccc(N3CCCC3)cc2Cl)CC1
3.238

Complete the entry with AM/CELL NORM for CCC(=O)Nc1ccc(C(=O)Nc2ccccc2-c2ccccc2)cc1
27.4861
